Cited source: PubChem BioAssay (NCI)

# reported growth; entries follow
Test system: SR leukemia
MEASUREMENT PROTOCOL: NCI-60 one-dose screen, 48 h (100 = growth as untreated, 0 = no growth, -100 = all killed)
TEST CONTEXT: 10 µM
This is part of a sample that, as a whole, favours compounds with a hit. Of some 83,000 tested, about 20% had one in any assay.
The figure you give is taken to be in %; do not add the unit.

c1cc[n+](C2c3ccccc3C([n+]3ccccc3)c3ccccc32)cc1 (stereo unspecified)
50.6
CCc1nc(N)nc(N)c1-c1ccc(Cl)cc1
57.3
Cc1cc(C)c(N)c(S(=O)(=O)O)c1
81.4
CCCC1(c2ccccc2)NC(=O)NC1=O (stereo unspecified)
126
CC(=O)c1ccc(C)c(N)c1
106

Next molecule, please.
# value of growth, SR leukemia, item `COc1cc2cc(c1Cl)N(C)C(=O)C[C@H](OC(=O)[C@H](C)N(C)C(C)=O)[C@]1(C)O[C@H]1[C@H](C)[C@@H]1C[C@@](O)(NC(=O)O1)[C@H](OC)C=C/C=C(\C)C2` = 10.2

---

Test system: ACHN renal
MEASUREMENT PROTOCOL: NCI-60 one-dose screen, 48 h (100 = growth as untreated, 0 = no growth, -100 = all killed)
TEST CONTEXT: 10 µM
About 83,000 compounds went through this panel and 20% of them were active in at least one assay; those are over-represented in the sample as a whole. Activity calls are given as the source filed them. How the source made its calls: active means growth percent below 10; inactive means the rest.
ENDPOINT NAME: growth

Use these answered entries as a reference point.
NCCCN
103% (inactive)
Cc1ccc(CCCC(=O)O)c(C)c1
98.3% (inactive)
CCc1ccc(/C(C#N)=C/C=C/c2ccccc2)cc1
58.3% (inactive)
C=CCNC(=O)c1ccc(OC)cc1
106% (inactive)
NC(=O)N/N=C\c1ccco1
111% (inactive)
CCN=c1cc2sc3cc(NCC)c(C)cc3nc-2cc1C
53% (inactive)
CN(C)c1ccc2nc3ccc(=N)cc-3sc2c1
53% (inactive)
CC1(c2ccccc2)NC(=O)NC1=O (centres undefined)
107% (inactive)

growth reported for this molecule `CCOC(=O)/C(=C/c1ccc(OC)cc1)N(CC)CC` : 113% (inactive)

The value of growth measured for the molecule `Oc1ccc(N=Nc2ccc(Br)cc2)c(O)c1` turned out to be 49.8% (inactive)

Sample `O=C(Nc1cccc(NC(=O)Nc2cc(C(F)(F)F)ccc2Cl)c1)Nc1cc(C(F)(F)F)ccc1Cl` ; growth observed: 9.11% (active)

growth measured on `CCCCC(=O)c1ccc(OC)cc1` = 96.3% (inactive)

Please fill in: growth reported for `COCCOCCCl` = 113% (inactive)

Sure, the documented growth for `CN(C)CCN(C)CC(C)(C)C(=O)/C=C/c1ccc(Cl)cc1` is -27.3% (active)

// growth lookup, molecule = `N#Cc1c(N)sc(=S)c2c1CCCC2` , result: 103% (inactive)

// `O=c1cc2oc3cc(O)c(O)cc3c(-c3ccccc3O)c-2cc1O` : growth value = 24% (inactive)

So, `NC(=O)c1ccc(N=C(N)N=C(N)N)cc1` ? Its growth was 112% (inactive)

Field growth (entry CCCCC(CC)COC(C)=O (centres undefined) ) reads 106% (inactive)

In plain terms, `COc1cccc(O)c1O` has a documented growth of 73.2% (inactive)

---

Listed here: items and their measured growth.
System: NCI-H322M lung
MEASUREMENT PROTOCOL: NCI-60 one-dose screen, 48 h (100 = growth as untreated, 0 = no growth, -100 = all killed)
TEST CONTEXT: 10 µM
This is part of a sample that, as a whole, favours compounds with a hit. Of some 83,000 tested, about 20% had one in any assay.
Response body: numeric value in %, unit text excluded.

Nc1ccc(N=Nc2ccc(S(=O)(=O)O)cc2)c2ccccc12
91.8
Cc1nc2ccccc2c(C(=O)O)c1O
117
COc1cccc(O)c1O
98.6

Now look at this entry.
response.value for `Nc1ccc(N=Nc2ccc(O)cc2)c(N)n1` (field: growth) = 97.4

---

Tested on: OVCAR-4 ovarian
MEASUREMENT PROTOCOL: NCI-60 one-dose screen, 48 h
TEST CONTEXT: 10 µM
Compounds without any hit were thinned out: in the full panel of roughly 83,000, 20% have a hit. Activity calls are given as the source filed them. Rule for the calls: active = growth percent below 10; inactive = the rest.
Can you answer with just one of these options? active, inactive

Completed entries (count: 5):
COc1ccc(Oc2c(I)cc(CC(NC(C)=O)C(=O)O)cc2I)cc1 (centres undefined)
inactive
CCOC(=O)C(CCC(C)C)C(=O)OCC
inactive
Nc1ccc(CC(=O)O)c(N)c1
inactive
O=C(O)C(O)c1ccccc1 (centres undefined)
inactive
Cc1ccc(O)c(C(=O)c2ccccc2)c1
inactive

Query string: Record lookup: outcome of this test for `Oc1ccccc1O` ?
Result string: inactive

Query string: Recorded test call requested for `Nc1ccc(N=Nc2ccc(S(=O)(=O)O)cc2)c2ccccc12`
Result string: inactive

Query string: Tell me the assay call for `Cc1nc2c(ccc3ccccc32)s1` please.
Result string: inactive

Query string: Per the records of this test, what outcome belongs to O=C(O)CCC(NC(=O)OCc1ccccc1)C(=O)O (centres undefined) ?
Result string: inactive

---

Tested on: UO-31 renal
MEASUREMENT PROTOCOL: NCI-60 one-dose screen, 48 h (100 = growth as untreated, 0 = no growth, -100 = all killed)
TEST CONTEXT: 10 µM
The panel holds about 83,000 compounds, 20% with a hit somewhere; the sample as a whole holds those more often.
ENDPOINT NAME: growth (%)
API: value field is a number in %; no unit string.

Data point: `CC(=O)OCCO` ; growth = 90.3

// field: growth; key: `N#CCCc1ccc(O)cc1` ; value = 90.5

---

Tested on: HCC-2998 colon
MEASUREMENT PROTOCOL: NCI-60 one-dose screen, 48 h (100 = growth as untreated, 0 = no growth, -100 = all killed)
TEST CONTEXT: 10 µM
The panel holds about 83,000 compounds, 20% with a hit somewhere; the sample as a whole holds those more often.
ENDPOINT NAME: growth (%)
Expressed in %, but write only the number.

CCOC(=O)C1=C(Nc2ccc(Br)cc2)C(=O)N(CC)C1
101
N/N=C(/Cc1ccccc1)NNC(N)=S
117
C/C(=N\O)C1(O)CCCCC1
109
Cc1cc(/C=C/c2ccc3cc(N(C)C)ccc3[n+]2C)c(C)n1-c1ccccc1
0.715
O=C(NN=C1CCCCC1)C(=O)NN=C1CCCCC1
113
CCOC(=O)c1ccc(Nc2sc(C(=O)c3cccc([N+](=O)[O-])c3)c(N)c2C#N)cc1
45.8
CC(=O)NC(N)=S
100
CC1CCCCN1C(=S)Nc1ccc(S(=O)(=O)N2CCCCC2)cc1 (centres undefined)
112
C1CNC(C2=NCCN2)=N1
92.3
S=c1sc2ccccc2n1CN1CCCCC1
116

Entry under test: `O=C(O)c1ccc(S(=O)(=O)O)cc1` . Its growth was 105

Per the records, this molecule ( CC1OC(Oc2c(-c3ccc(O)c(O)c3)oc3cc(O)cc(O)c3c2=O)C(O)C(O)C1O (centres undefined) ) has growth equal to 110

---

System: CAKI-1 renal
MEASUREMENT PROTOCOL: NCI-60 one-dose screen, 48 h (100 = growth as untreated, 0 = no growth, -100 = all killed)
TEST CONTEXT: 10 µM
This is part of a sample that, as a whole, favours compounds with a hit. Of some 83,000 tested, about 20% had one in any assay.
Listing of entries alongside the reported growth.
Note: unit % is implicit; provide only the numeric part.

COC(=O)Nc1cccc(Cl)c1OC
94.5
N#CCCN(CCCN1CCOCC1)CN1C(=O)c2ccccc2C1=O
98.6
CN(C)CCN(Cc1ccccc1)c1ccccc1
77.2
CC(C)OC(=O)c1cc(NC(=S)OC(C)C)ccc1Cl
53.6
FC(F)(F)c1ccc2c(c1)N(CCCN1CCN(C3CC3)CC1)c1ccccc1S2
17.3
CCCCCCCCCCCCCCCCC1CC(=O)OC1=O (centres undefined)
97.9
Nc1ccc(C(=O)c2ccc(N)c(Br)c2)cc1Br
42.9
Cc1cc(C(O)(c2ccc(Nc3ccccc3)cc2)c2ccc(Nc3ccc(S(=O)(=O)O)cc3)cc2)ccc1N (centres undefined)
31.7

growth on CAKI-1 renal for CC(=O)OC(OC(C)=O)C1CCCO1 (centres undefined) is 112

Bench note, CAKI-1 renal: entry `CCC(=O)Oc1ccc(OC)cc1` , its growth = 98.3

Lab note: compound `Nc1ccc(N)c([N+](=O)[O-])c1` tested on CAKI-1 renal; recorded growth was 106

Form field growth for item CN1C(=O)CN2CCc3ccccc3C2c2cc(Cl)ccc21 (centres undefined) on CAKI-1 renal: 81

// growth (CAKI-1 renal) for O=C1C=CC2=C3c4cc(O)c(O)cc4CC3(O)COC2=C1O (centres undefined) = 111

Result for `Cc1cc2ccccc2c(O)c1C#N` , tested on CAKI-1 renal, growth: 115

Lab note: compound `O=C(NCc1ccco1)Nc1c(Cl)cc(Cl)cc1Cl` tested on CAKI-1 renal; recorded growth was 89.1

# `O=[N+]([O-])c1ccc(/C=C/C=C/c2ccccc2)c(Cl)c1` with CAKI-1 renal: growth is 95

Assay CAKI-1 renal, sample `Nc1nc(N)c2cc(S(=O)(=O)c3cccc(C(F)(F)F)c3)ccc2n1` , growth read: 65.1

Form field growth for item `O=C(CC(=O)c1ccccc1O)c1ccccc1` on CAKI-1 renal: 92.2

# value of growth, CAKI-1 renal, item `C1CNC(C2=NCCN2)=N1` = 99.2

Form field, growth with CAKI-1 renal, item `CCOC(=O)/C(=C/c1ccc(OC)cc1)N(CC)CC` : 103

Entry `COc1cc(C(N)=O)cc(OC)c1OC` , tested on CAKI-1 renal, has a reported growth of 91

# growth measured on CAKI-1 renal for item `CCO/C=C1\SC(=S)N(c2cccc(C)c2)C1=O` = 101

Case `NCC(=O)CCC(=O)O` , CAKI-1 renal, growth recorded as 109

The compound `CC(=O)c1c[nH]c2ccccc12` on CAKI-1 renal: growth was 80.1

I looked up `OCCN1CCOCC1` and its growth for CAKI-1 renal was 132

Entry O=C(OCC(O)C1OC(c2ccccc2)OC(COC(=O)c2ccccc2)C1O)c1ccccc1 (centres undefined) ; assay system CAKI-1 renal; growth recorded at 85.3
